Catalogue of viability at 5 h, 10 µM readings, one per entry.
TEST_SUMMARY: Cytotoxicity against mouse J774.A1 cells assessed as cell viability at 10 uM incubated for 5 hrs by Cell Titer-Glo Luminescent Cell Viability assay relative to control
Type: toxicity, cell-based
ASSAY_CONDITIONS: read-out: Activity
EXPERIMENTAL_ENDPOINT: viability at 5 h, 10 µM (%)

{"columns": ["MOLECULE", "RECORDED_RESULT"],
 "data": [
  ["CC(C)OC(=O)[C@H](Cc1ccccc1)NP(=O)(COCCn1cc(-c2cccc(NS(C)(=O)=O)c2)c2c(N)ncnc21)N[C@@H](Cc1ccccc1)C(=O)OC(C)C", 87],
  ["COc1cccc(-c2cn(CCOCP(=O)(N[C@@H](Cc3ccccc3)C(=O)OC(C)C)N[C@@H](Cc3ccccc3)C(=O)OC(C)C)c3ncnc(N)c23)c1", 94],
  ["CC(C)OC(=O)[C@H](Cc1ccccc1)NP(=O)(COCCn1cc(-c2ccccn2)c2c(N)ncnc21)N[C@@H](Cc1ccccc1)C(=O)OC(C)C", 104],
  ["COc1ccc(-c2cn(CCOCP(=O)(N[C@@H](Cc3ccccc3)C(=O)OC(C)C)N[C@@H](Cc3ccccc3)C(=O)OC(C)C)c3ncnc(N)c23)cc1", 112],
  ["CCOC(=O)[C@H](C)NP(=O)(COCCn1cc(-c2ccc(OC)cc2)c2c(N)ncnc21)Oc1ccccc1 (stereo partly drawn)", 104],
  ["CC(C)OC(=O)[C@H](Cc1ccccc1)NP(=O)(COCCn1cc(C(C)C)c2c(N)ncnc21)N[C@@H](Cc1ccccc1)C(=O)OC(C)C", 121],
  ["CC(C)OC(=O)[C@H](Cc1ccccc1)NP(=O)(COCCn1cc(-c2cccc(-c3noc(=O)[nH]3)c2)c2c(N)ncnc21)N[C@@H](Cc1ccccc1)C(=O)OC(C)C", 114],
  ["CC(C)OC(=O)[C@H](Cc1ccccc1)NP(=O)(COCCn1cc(-c2cccc(C#N)c2)c2c(N)ncnc21)N[C@@H](Cc1ccccc1)C(=O)OC(C)C", 111],
  ["CC(C)OC(=O)[C@H](Cc1ccccc1)NP(=O)(COCCn1cc(-c2ccc([N+](=O)[O-])cc2)c2c(N)ncnc21)N[C@@H](Cc1ccccc1)C(=O)OC(C)C", 113],
  ["COc1ccc(-c2cn(CCOCP(=O)(OCOC(=O)C(C)(C)C)OCOC(=O)C(C)(C)C)c3ncnc(N)c23)cc1", 85],
  ["CC(C)OC(=O)[C@H](Cc1ccccc1)NP(=O)(COCCn1cc(C#Cc2ccccc2)c2c(N)ncnc21)N[C@@H](Cc1ccccc1)C(=O)OC(C)C", 116],
  ["CC(C)OC(=O)[C@H](Cc1ccccc1)NP(=O)(COCCn1cc(-c2ccco2)c2c(N)ncnc21)N[C@@H](Cc1ccccc1)C(=O)OC(C)C", 43],
  ["CC(C)OC(=O)[C@H](Cc1ccccc1)NP(=O)(COCCn1cc(-c2cccc(C(=O)O)c2)c2c(N)ncnc21)N[C@@H](Cc1ccccc1)C(=O)OC(C)C", 104]
]}

====

System: HEK293
TEST_SUMMARY: Cytotoxicity against AC1 expressed HEK293 cells by CellTiter-Glo 2.0 assay relative to control
Type: toxicity, cell-based
Set-up: concentration or dose not given beside the values
ASSAY_CONDITIONS: human
The following compounds are listed with their measured Activity values.

{"columns": ["SMILES_STRING", "Activity / %"],
 "data": [
  ["CC(C)OC(=O)[C@H](Cc1ccccc1)NP(=O)(COCCn1cc(-c2cccs2)c2c(N)ncnc21)N[C@@H](Cc1ccccc1)C(=O)OC(C)C", -9],
  ["CC(C)OC(=O)[C@H](Cc1ccccc1)NP(=O)(COCCn1cc(-c2cccc(-c3noc(=O)[nH]3)c2)c2c(N)ncnc21)N[C@@H](Cc1ccccc1)C(=O)OC(C)C", 89],
  ["CC(C)OC(=O)[C@H](Cc1ccccc1)NP(=O)(COCCn1cc(-c2cccc(NS(C)(=O)=O)c2)c2c(N)ncnc21)N[C@@H](Cc1ccccc1)C(=O)OC(C)C", 98],
  ["CC(C)OC(=O)[C@H](Cc1ccccc1)NP(=O)(COCCn1cc(-c2cccc(C(=O)O)c2)c2c(N)ncnc21)N[C@@H](Cc1ccccc1)C(=O)OC(C)C", 115],
  ["CC(C)OC(=O)[C@H](Cc1ccccc1)NP(=O)(COCCn1cc(-c2ccc([N+](=O)[O-])cc2)c2c(N)ncnc21)N[C@@H](Cc1ccccc1)C(=O)OC(C)C", 97],
  ["CC(C)OC(=O)[C@H](Cc1ccccc1)NP(=O)(COCCn1cc(-c2ccco2)c2c(N)ncnc21)N[C@@H](Cc1ccccc1)C(=O)OC(C)C", -9]
]}
